# Lookup of reported normalized growth keyed by entry
Test: chemical genetic growth profiling, strain panel (AID 1159580);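 also: tested at 20 µM; growth read once vehicle control cultures reached saturation at 30 °C; 1 = growth at the plate median or of vehicle wells; lower values mean less growth of the strain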
Settings: S. cerevisiae deletion strains, growth OD, locus YJR016C, strain ILV3, hits give low values
The whole screen tested about 5,500 compounds, of which about 2,000 (36%) were called active. Inconclusive results (about 18%) are left out. Some of the results follow.
quantity measured: normalized growth

{"molecule": "CO/N=C1/CC(C)(C)Cc2c(-c3ccn(C(=O)Nc4cccc(Cl)c4)n3)sc(SC)c21", "quantity measured": "normalized growth", "endpoint result": 0.97}
{"molecule": "CN(C)/C=C1\\CSc2ccc(Cl)cc2C1=O", "quantity measured": "normalized growth", "endpoint result": 0.965}
{"molecule": "OC(COCc1ccccc1)Cn1c2ccccc2c2ccccc21 (stereo unspecified)", "quantity measured": "normalized growth", "endpoint result": 0.953}
{"molecule": "O=C1Nc2ccccc2/C1=C\\c1c[nH]c2ccccc12", "quantity measured": "normalized growth", "endpoint result": 0.914}
{"molecule": "COc1ccc(Br)c(C(=O)/C(C#N)=C/c2cccs2)c1", "quantity measured": "normalized growth", "endpoint result": 0.915}
{"molecule": "CN1/C(=C/C=C/c2ccc3ccccc3[n+]2C)C=Cc2ccccc21", "quantity measured": "normalized growth", "endpoint result": 0.828}

* * *

Experiment: chemical genetic growth profiling, strain panel (AID 1159580);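 also: tested at 20 µM; growth read once vehicle control cultures reached saturation at 30 °C; 1 = growth at the plate median or of vehicle wells; lower values mean less growth of the strain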
Settings: S. cerevisiae deletion strains, growth OD, locus YJL095W, strain BCK1, hits give low values
Screen size: about 5,500 compounds; about 2,000 (36%) were called active. Inconclusive results (about 18%) are left out. This is one part of the list.

{"compound": "COc1cc(C(=O)O)cc(OC)c1OC", "normalized growth": 1.02}
{"compound": "CC(=O)O[C@@H]1CC2C(C)(C)CCC[C@]2(C)C2CC[C@]3(C)C(=CC(=O)O[C@H]3c3ccoc3)[C@@]21C (stereo not given in full)", "normalized growth": 0.97}
{"compound": "O=C(OCc1ccccc1Br)c1cc([N+](=O)[O-])cc([N+](=O)[O-])c1", "normalized growth": 0.92}
{"compound": "Cc1ccc(OS(=O)(=O)c2c(Cl)sc(Cl)c2Br)c([N+](=O)[O-])n1", "normalized growth": 0.968}
{"compound": "O=C1CC2(CCCC2)CC(=O)N1CCCCN1CCN(c2ncccn2)CC1", "normalized growth": 1}
{"compound": "CC12CCC3C(CCC4(O)CC(O)CCC34/C=N/NC(N)=O)C1(O)CCC2C1=CC(=O)OC1 (stereo not given)", "normalized growth": 1}
{"compound": "O=C(Nc1cc2ccccc2s1)N1CCN(Cc2c(F)cccc2Cl)CC1", "normalized growth": 0.927}
{"compound": "N/C(=N/OC(=O)c1cnn(-c2ccc([N+](=O)[O-])cc2)c1C(F)(F)F)c1ccc(Cl)cc1", "normalized growth": 1.04}
{"compound": "CC(=O)c1ccc(S(=O)(=O)NC(=O)NC2CCCCC2)cc1", "normalized growth": 1.02}
{"compound": "CC(=O)NCCc1ccc(O)c(-c2c(O)c(O)c3c(c2O)C(=O)c2c(cc(O)c(C(=O)O)c2C(=O)O)C3=O)c1", "normalized growth": 0.992}
{"compound": "O=C(/C=C(\\O)c1ccccc1)c1ccccc1O", "normalized growth": 0.254}
{"compound": "COC1C(O)C(O[C@H]2CC[C@]3(C=O)C4C(CC[C@]3(O)C2)[C@@]2(O)CC[C@H](C3=CC(=O)OC3)[C@@]2(C)C[C@H]4OC(C)=O)OC(C)C1OC(C)=O (stereo not given in full)", "normalized growth": 1.07}
{"compound": "O=c1c2cc(O)c(O)cc2oc2cc(O)c(C3O[C@H](CO)[C@H](O)[C@@H](O)[C@H]3O)c(O)c12 (stereo not given in full)", "normalized growth": 1.03}
{"compound": "N/C(=N/OC(=O)Nc1cccc(C(F)(F)F)c1)c1ccc(OC(F)(F)F)cc1", "normalized growth": 0.287}
{"compound": "O=C(CCCN1CCN(c2ccccn2)CC1)c1ccc(F)cc1", "normalized growth": 0.982}
{"compound": "CC(C)c1cccc(C(C)C)c1O", "normalized growth": 0.992}
{"compound": "Cc1ncc(CO)c(CO)c1O", "normalized growth": 0.973}
{"compound": "CC(=O)OC1CC[C@@]2(C)C(CCC3C2CC[C@]2(C)C(C4=CC(=O)OC4)C(OC(C)=O)CC32O)C1 (stereo not given in full)", "normalized growth": 0.999}
{"compound": "CCC(C)n1ncn(-c2ccc(N3CCN(c4ccc(OC[C@H]5CO[C@](Cn6cncn6)(c6ccc(Cl)cc6Cl)O5)cc4)CC3)cc2)c1=O (stereo not given in full)", "normalized growth": 0.112}
{"compound": "NC(=O)C1(N2CCCCC2)CCN(CCCC(=O)c2ccc(F)cc2)CC1", "normalized growth": 0.99}

From: PubChem BioAssay AID1159580
